- System: 922993-354-T-J3-PDC complex spheroids, viability, % test/control
- PROTOCOL_NOTES: Anticancer human tumor 922993-354-T-J3-PDC patient-derived endometrial carcinoma cell line growth inhibition [CLK]
- CONDITION_SUMMARY: second compound 0.0316 µM; first compound 0.1 µM; hits give low values
MEASURED_METRIC: viability, T/C (%)
Value expressed in %; do not type the unit.

# lookup: Nc1ccccc1NC(=O)c1ccc(CNC(=O)OCc2cccnc2)cc1 + CNC(=O)c1ccc(Nc2nc(OC3CCCC3)c3c(-c4ccc5nc(C)oc5c4)c[nH]c3n2)c(OC)c1 on 922993-354-T-J3-PDC complex spheroids, viability, % test/control, viability, T/C = 99.7

# lookup: COc1ccc([C@@H](O)c2cc(-c3ncnc4cc(N5CCOCC5)ccc34)c(F)cc2Cl)nn1 + CN1CCN(c2cc(C(=O)Nc3cc4cc(-c5cnn(C)c5)ccc4cn3)ccn2)CC1 on 922993-354-T-J3-PDC complex spheroids, viability, % test/control, viability, T/C = 131

# lookup: COc1c(OCCCN2CCOCC2)ccc2c3n(c(=NC(=O)c4cnc(N)nc4)nc12)CCN3 + CN1CCN(c2cc(C(=O)Nc3cc4cc(-c5cnn(C)c5)ccc4cn3)ccn2)CC1 on 922993-354-T-J3-PDC complex spheroids, viability, % test/control, viability, T/C = 59.7

# lookup: O=c1[nH]cc(F)c(=O)[nH]1 + CNC(=O)c1ccc(Nc2nc(OC3CCCC3)c3c(-c4ccc5nc(C)oc5c4)c[nH]c3n2)c(OC)c1 on 922993-354-T-J3-PDC complex spheroids, viability, % test/control, viability, T/C = 104

# lookup: Cn1ncnc1[C@H]1c2n[nH]c(=O)c3cc(F)cc(c23)N[C@@H]1c1ccc(F)cc1 + CN1CCN(c2cc(C(=O)Nc3cc4cc(-c5cnn(C)c5)ccc4cn3)ccn2)CC1 on 922993-354-T-J3-PDC complex spheroids, viability, % test/control, viability, T/C = 75.3

# lookup: CC(CO)NC(=O)c1cc(-c2ccc(Cl)cc2)nn(-c2cnn(C)c2)c1=O (stereo unspecified) + CN1CCN(c2cc(C(=O)Nc3cc4cc(-c5cnn(C)c5)ccc4cn3)ccn2)CC1 on 922993-354-T-J3-PDC complex spheroids, viability, % test/control, viability, T/C = 98.2

====

- System: 922993-354-T-J3-PDC complex spheroids, viability, % test/control
- PROTOCOL_NOTES: Anticancer human tumor 922993-354-T-J3-PDC cell line growth inhibition [CLK]; active = viability on the fitted dose curve at most 10% of control; inactive = the rest;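 note: spheroids exposed to the agents for 7 days before readout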
- CONDITION_SUMMARY: second compound 3.16 µM; first compound 0.0316 µM
Allowed answers: active, inactive

Exam item: Dear all, I need the recorded test outcome for C=C(F)C(=O)N1CCN(c2nc(OCC3CCCN3C)nc3c2CCN(c2cccc4cccc(Cl)c24)C3)CC1CC#N (stereo not given) + CN1CCN(c2cc(C(=O)Nc3cc4cc(-c5cnn(C)c5)ccc4cn3)ccn2)CC1 , thank you.
Marked response: active

Exam item: Dear all, I need the recorded test outcome for CCc1c2c(nc3ccc(O)cc13)-c1cc3c(c(=O)n1C2)COC(=O)[C@]3(O)CC + CNC(=O)c1ccc(Nc2nc(OC3CCCC3)c3c(-c4ccc5nc(C)oc5c4)c[nH]c3n2)c(OC)c1 , thank you.
Marked response: inactive

Exam item: Dear all, I need the recorded test outcome for C=CC(=O)N1CCN(c2nc(=O)n(-c3c(C)ccnc3C(C)C)c3nc(-c4c(O)cccc4F)c(F)cc23)C(C)C1 (stereo not given) + CN1CCN(c2cc(C(=O)Nc3cc4cc(-c5cnn(C)c5)ccc4cn3)ccn2)CC1 , thank you.
Marked response: active

Exam item: Dear all, I need the recorded test outcome for COc1c(OCCCN2CCOCC2)ccc2c3n(c(=NC(=O)c4cnc(N)nc4)nc12)CCN3 + CNC(=O)c1ccc(Nc2nc(OC3CCCC3)c3c(-c4ccc5nc(C)oc5c4)c[nH]c3n2)c(OC)c1 , thank you.
Marked response: inactive

Exam item: Dear all, I need the recorded test outcome for CC1(C)CCC(CN2CCN(c3ccc(C(=O)NS(=O)(=O)c4ccc(NCC5CCOCC5)c([N+](=O)[O-])c4)c(Oc4cnc5[nH]ccc5c4)c3)CC2)=C(c2ccc(Cl)cc2)C1 + CNC(=O)c1ccc(Nc2nc(OC3CCCC3)c3c(-c4ccc5nc(C)oc5c4)c[nH]c3n2)c(OC)c1 , thank you.
Marked response: inactive
